target: Cytochrome P450 11B1, mitochondrial (Homo sapiens); experiment: Inhibition of human CYP11B1-8C7 expressed in Chinese hamster V79 cells using 11-deoxycortisol as substrate preincubated for 1 hr followed by substrate addition measured for 3 hrs by HTRF assay
PROPERTY LABEL: IC50

The cases that follow already have their IC50 on record.
[
  {
    "SMILES STRING": "C[C@](O)(c1cncc(-n2nc(C(F)(F)F)c3ccccc32)c1)C(F)(F)F",
    "IC50": "856 to 860 nM"
  },
  {
    "SMILES STRING": "CC(C)(O)c1cncc(-n2ncc3ccc(F)cc32)c1",
    "IC50": "1990 to 2000 nM"
  },
  {
    "SMILES STRING": "COc1cncc(-n2ncc3cc(F)ccc32)c1",
    "IC50": "1300 nM"
  },
  {
    "SMILES STRING": "CC(C)(O)c1cncc(-n2ncc3c(Cl)ccc(F)c32)c1",
    "IC50": "1.1 to 7.72 nM"
  },
  {
    "SMILES STRING": "CC(C)(O)c1cncc(-n2ncc3cc(F)ccc32)c1",
    "IC50": "197 to 210 nM"
  }
]

## Task Looking for the measured IC50 of CC(C)(O)c1cncc(-n2nc(C(F)(F)F)c3ccccc32)c1 , can you help?
## Result 8300 to 8330 nM

---

Molecular target: Cytochrome P450 11B2, mitochondrial (Homo sapiens, UniProt P19099)
Sequence (P19099 whole entry): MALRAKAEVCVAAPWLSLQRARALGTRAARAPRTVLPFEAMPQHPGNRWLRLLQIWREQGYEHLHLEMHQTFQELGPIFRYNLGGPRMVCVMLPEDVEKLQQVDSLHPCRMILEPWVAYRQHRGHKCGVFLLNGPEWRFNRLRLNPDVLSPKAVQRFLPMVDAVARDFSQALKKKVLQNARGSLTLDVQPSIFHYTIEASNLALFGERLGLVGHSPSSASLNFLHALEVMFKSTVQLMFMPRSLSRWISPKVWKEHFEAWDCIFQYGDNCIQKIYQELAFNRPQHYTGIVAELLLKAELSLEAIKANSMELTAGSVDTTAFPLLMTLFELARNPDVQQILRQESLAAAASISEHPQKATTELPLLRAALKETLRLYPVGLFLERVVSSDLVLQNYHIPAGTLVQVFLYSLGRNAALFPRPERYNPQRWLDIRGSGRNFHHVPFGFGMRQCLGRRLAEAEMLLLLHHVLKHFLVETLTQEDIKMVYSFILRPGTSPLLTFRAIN
Experiment: Inhibition of human CYP11B2-CLE9 expressed in Chinese hamster V79 cells using 11-deoxycorticosterone as substrate preincubated for 1 hr followed by substrate addition measured for 3 hrs by HTRF assay
Assay type: cell-based
PROPERTY LABEL: IC50

[
  {
    "SMILES STRING": "COC(=O)c1cncc(-n2ncc3cc(F)ccc32)c1",
    "IC50": "0.031 µM"
  },
  {
    "SMILES STRING": "Cc1nn(-c2cncc(C(C)(C)O)c2)c2ccccc12",
    "IC50": "0.0335 to 0.034 µM"
  },
  {
    "SMILES STRING": "CC(C)(O)c1cncc(-n2ncc3cc(F)ccc32)c1",
    "IC50": "0.0109 to 0.013 µM"
  },
  {
    "SMILES STRING": "CC(C)(O)c1cncc(-n2ncc3c(F)cccc32)c1",
    "IC50": "0.00758 to 0.008 µM"
  },
  {
    "SMILES STRING": "CC(C)(O)c1cncc(-n2ncc3cc(C(F)(F)F)ccc32)c1",
    "IC50": "0.507 to 0.51 µM"
  },
  {
    "SMILES STRING": "Cc1nn(-c2cncc([C@@](C)(O)C(F)(F)F)c2)c2ccccc12",
    "IC50": "0.0329 to 0.033 µM"
  },
  {
    "SMILES STRING": "Cc1nn(-c2cncc([C@](C)(O)C(F)(F)F)c2)c2ccccc12",
    "IC50": "0.014 to 0.0143 µM"
  }
]

Moving on to the next molecule.
## Task Looking for the measured IC50 of Cc1cccc2c1cnn2-c1cncc(C(C)(C)O)c1 , can you help?
## Result 0.00777 to 0.008 µM

---

Target: Cytochrome P450 11B1, mitochondrial (Homo sapiens, UniProt P15538)
Sequence (P15538 whole entry): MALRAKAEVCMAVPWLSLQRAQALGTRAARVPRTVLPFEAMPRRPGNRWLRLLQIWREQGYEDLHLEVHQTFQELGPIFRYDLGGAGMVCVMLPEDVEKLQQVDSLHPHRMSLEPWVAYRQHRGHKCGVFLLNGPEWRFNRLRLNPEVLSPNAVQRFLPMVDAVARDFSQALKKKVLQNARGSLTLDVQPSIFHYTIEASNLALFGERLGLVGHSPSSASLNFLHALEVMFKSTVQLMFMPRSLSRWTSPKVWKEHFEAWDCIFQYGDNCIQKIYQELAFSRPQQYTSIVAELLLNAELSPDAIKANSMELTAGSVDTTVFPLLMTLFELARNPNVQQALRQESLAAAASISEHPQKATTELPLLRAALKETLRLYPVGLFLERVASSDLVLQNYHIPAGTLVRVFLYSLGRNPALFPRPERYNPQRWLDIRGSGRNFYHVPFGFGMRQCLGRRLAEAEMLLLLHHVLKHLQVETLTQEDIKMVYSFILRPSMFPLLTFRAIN
Assay: Inhibition of human CYP11B1-8C7 expressed in Chinese hamster V79 cells using 11-deoxycortisol as substrate preincubated for 1 hr followed by substrate addition measured for 3 hrs by HTRF assay
pIC50: −log10 of the molar value.
# binarize pIC50: threshold 6 inclusive, high side condition met, low side condition not met

## Task Kindly determine if pIC50 recorded for Cc1nn(-c2cncc([C@](C)(O)C(F)(F)F)c2)c2ccccc12 is above or exactly 6.
## Result condition met

## Task Kindly determine if pIC50 recorded for COC(=O)c1cncc(-n2ncc3cc(F)ccc32)c1 is above or exactly 6.
## Result condition met

## Task Kindly determine if pIC50 recorded for CC(C)(O)c1cncc(-n2ncc3c(C(F)(F)F)cccc32)c1 is above or exactly 6.
## Result condition met

## Task Kindly determine if pIC50 recorded for CC(C)(O)c1cncc(-n2ncc3cc(Cl)ccc32)c1 is above or exactly 6.
## Result condition met

## Task Kindly determine if pIC50 recorded for CC(C)(O)c1cncc(-n2ncc3ccccc32)c1 is above or exactly 6.
## Result condition met

---

Target: Cytochrome P450 11B2, mitochondrial (Homo sapiens, UniProt P19099)
Sequence (P19099 whole entry): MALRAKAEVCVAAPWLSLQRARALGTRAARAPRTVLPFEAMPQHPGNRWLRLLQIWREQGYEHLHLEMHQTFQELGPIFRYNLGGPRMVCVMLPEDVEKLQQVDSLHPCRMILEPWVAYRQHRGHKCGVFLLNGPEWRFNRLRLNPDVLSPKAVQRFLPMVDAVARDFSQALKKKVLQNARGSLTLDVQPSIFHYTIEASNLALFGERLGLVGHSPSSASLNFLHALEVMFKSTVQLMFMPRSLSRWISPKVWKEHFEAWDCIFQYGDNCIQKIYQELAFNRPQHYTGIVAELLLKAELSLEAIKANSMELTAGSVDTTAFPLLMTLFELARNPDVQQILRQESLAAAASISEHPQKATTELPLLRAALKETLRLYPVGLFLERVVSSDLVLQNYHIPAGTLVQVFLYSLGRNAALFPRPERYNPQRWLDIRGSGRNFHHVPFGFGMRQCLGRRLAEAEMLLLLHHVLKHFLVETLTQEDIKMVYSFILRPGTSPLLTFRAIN
Assay: Inhibition of human CYP11B2-CLE9 expressed in Chinese hamster V79 cells using 11-deoxycorticosterone as substrate preincubated for 1 hr followed by substrate addition measured for 3 hrs by HTRF assay
pIC50: −log10 of the molar value.
PROPERTY LABEL: pIC50

The cases that follow already have their pIC50 on record.
[
  {
    "SMILES STRING": "CC(C)(O)c1cncc(-n2ncc3cc(Cl)ccc32)c1",
    "pIC50": "7.56 to 7.57"
  },
  {
    "SMILES STRING": "CC(C)(O)c1cncc(-n2ncc3c(Cl)ccc(F)c32)c1",
    "pIC50": "9.40 to 9.70"
  }
]

Moving on to the next molecule.
## Task # value lookup — system Cytochrome P450 11B2, mitochondrial (Homo sapiens, UniProt P19099), readout pIC50, item Cc1nn(-c2cncc(C(C)(C)O)c2)c2cccc(F)c12
## Result 8.88 to 8.89

---

target: Cytochrome P450 11B1, mitochondrial (Homo sapiens, UniProt P15538); test: Inhibition of human CYP11B1-8C7 expressed in Chinese hamster V79 cells using 11-deoxycortisol as substrate preincubated for 1 hr followed by substrate addition measured for 3 hrs by HTRF assay
PROPERTY LABEL: IC50

[
  {
    "MOLECULE": "Cc1nn(-c2cncc(C(C)(C)O)c2)c2ccccc12",
    "IC50": "779 to 780 nM"
  }
]

## Task Looking for the measured IC50 of Cc1nn(-c2cncc(C(C)(C)O)c2)c2cccc(F)c12 , can you help?
## Result 22 to 22.3 nM

## Task Looking for the measured IC50 of COc1ccc2c(cnn2-c2cncc(C(C)(C)O)c2)c1 , can you help?
## Result 1000 nM

## Task Looking for the measured IC50 of CC(O)(c1cncc(-n2ncc3cc(F)ccc32)c1)C(F)(F)F (configuration not stated) , can you help?
## Result 47 to 47.4 nM

## Task Looking for the measured IC50 of CC(C)(O)c1cncc(-n2ncc3c(F)ccc(F)c32)c1 , can you help?
## Result 1.8 to 8.9 nM

## Task Looking for the measured IC50 of CC(C)(O)c1cncc(-n2ncc3cccc(F)c32)c1 , can you help?
## Result 10.7 to 11 nM

## Task Looking for the measured IC50 of COc1nn(-c2cncc(C(C)(C)O)c2)c2ccccc12 , can you help?
## Result 1400 to 1410 nM

## Task Looking for the measured IC50 of Cc1nn(-c2cncc([C@@](C)(O)C(F)(F)F)c2)c2ccccc12 , can you help?
## Result 386 to 390 nM

## Task Looking for the measured IC50 of CC(C)(O)c1cncc(-n2nc(C3CC3)c3ccccc32)c1 , can you help?
## Result 8300 to 8330 nM

## Task Looking for the measured IC50 of CC(C)(O)c1cncc(-n2ncc3cc(C#N)ccc32)c1 , can you help?
## Result 8300 to 8330 nM

## Task Looking for the measured IC50 of CC(C)(O)c1cncc(-n2ncc3ccc(Cl)cc32)c1 , can you help?
## Result 8300 to 8330 nM

## Task Looking for the measured IC50 of CC(C)(O)c1cncc(-n2ncc3cc(C(F)(F)F)ccc32)c1 , can you help?
## Result 1200 to 1240 nM
